# residual activity values compiled below
# Target Of Assay: Tyrosine-protein kinase Fes/Fps (Homo sapiens)
# Condition Notes: at 1 µM
Quick note: number first, unit second.

Compound Structure String | residual activity
Oc1c2ccccc2c2c3c(cccc13)N=N2 | 34%
CCN(CC)CCCCN1c2ccccc2Oc2ccc(Cl)cc21 | 129%
COc1ccc(OC)c2c(=S)c3ccccc3[nH]c12 | 89%
Nc1cccc(-c2cc3c(Oc4cccc(O)c4)ncnc3[nH]2)c1 | 13%

*Q* Would you mind telling me what residual activity value was observed for `Cn1cnc2cc3c(Nc4cccc(Br)c4)ncnc3cc21` ?
*A* 132%

*Q* Next entry: `Ic1cccc(CSc2nnc(-c3ccncc3)o2)c1`
*A* 88%

---

# Target Of Assay: Serine/threonine-protein kinase PLK2 (Homo sapiens);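 note: residual PLK2 kinase activity expressed as percent of uninhibited control, measured in MOPS buffer at pH 7.0 with EDTA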
# Condition Notes: at 1 µM
# Description: Millipore: Percentage of residual kinase activity of PLK2 at 1uM relative to control. Control inhibitor: Phosphoric acid* at 0.3uM. Buffer: 8 mM MOPS pH 7.0, 0.2 mM EDTA
Recorded Endpoint: residual activity (%)
// units = %; emit number, no label

*Q* Which residual activity reading was recorded for the compound `CO[C@H]1[C@@H](OC)C[C@H](C)[C@@H](OC)C2=CC(=O)C=C(NC(=O)/C(C)=C/C=C/[C@H](OC)[C@@H](OC(N)=O)/C(C)=C/[C@@H]1C)C2=O` ?
*A* 100

*Q* Try this compound too: `Nc1cccc(-c2cc3c(Oc4cccc(O)c4)ncnc3[nH]2)c1`
*A* 96

---

# Target Of Assay: TGF-beta receptor type-1 (Homo sapiens) (UniProt P36897)
# Sequence (whole entry): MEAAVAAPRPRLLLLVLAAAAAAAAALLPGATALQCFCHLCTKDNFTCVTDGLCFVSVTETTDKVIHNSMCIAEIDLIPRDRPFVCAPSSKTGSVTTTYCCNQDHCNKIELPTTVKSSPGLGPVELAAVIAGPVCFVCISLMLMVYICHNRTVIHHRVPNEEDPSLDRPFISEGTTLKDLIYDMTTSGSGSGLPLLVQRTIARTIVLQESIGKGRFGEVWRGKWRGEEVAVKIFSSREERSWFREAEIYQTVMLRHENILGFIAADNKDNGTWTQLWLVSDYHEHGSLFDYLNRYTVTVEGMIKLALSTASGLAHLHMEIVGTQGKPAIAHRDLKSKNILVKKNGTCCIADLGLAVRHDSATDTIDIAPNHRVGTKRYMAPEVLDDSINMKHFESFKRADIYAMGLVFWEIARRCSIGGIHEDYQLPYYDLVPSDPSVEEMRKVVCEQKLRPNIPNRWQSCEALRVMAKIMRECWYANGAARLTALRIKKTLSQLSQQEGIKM
# Condition Notes: at 1 µM
# Description: Millipore: Percentage of residual kinase activity of TGFBR1 at 1uM relative to control. Control inhibitor: Phosphoric acid* at 0.3uM. Buffer: 8 mM MOPS pH 7.0, 0.2 mM EDTA, 1 mM MnCl2
// returns no unless residual activity is strictly below 90%, in which case yes

Solved entries (count: 6):
Compound Structure String | Target Of Assay | Cat
COc1ccc(C(=O)Nc2sc3c(c2C(N)=O)CCCC3)cc1OC | TGF-beta receptor type-1 (Homo sapiens) (UniProt P36897) | yes
CNc1cc2c(Nc3cccc(Br)c3)ncnc2cn1 | TGF-beta receptor type-1 (Homo sapiens) (UniProt P36897) | yes
Cc1nc(-c2ccccc2)c(-c2ccncc2)o1 | TGF-beta receptor type-1 (Homo sapiens) (UniProt P36897) | no
CCC(=O)Nc1ccc2ncnc(Nc3cccc(Br)c3)c2c1 | TGF-beta receptor type-1 (Homo sapiens) (UniProt P36897) | yes
N#CCCc1ccc2c(c1)-c1[nH]c3ccc([N+](=O)[O-])cc3c1CC(=O)N2 | TGF-beta receptor type-1 (Homo sapiens) (UniProt P36897) | yes
CC#CC(=O)Nc1cc2c(Nc3ccc(F)c(Cl)c3)ncnc2cn1 | TGF-beta receptor type-1 (Homo sapiens) (UniProt P36897) | yes

*Q* Is 90% strictly greater than the molecule's reported residual activity? molecule: `Oc1ccc(Nc2nc(-c3ccc(Cl)cc3)cs2)cc1`
*A* no

*Q* Lookup `Oc1ccc(-c2nc(-c3ccc(F)cc3)c(-c3ccncc3)[nH]2)cc1`
*A* no

*Q* Item: `O=C(O)c1ccc2c3c1cccc3c(=O)n1c3ccccc3nc21`
*A* no

*Q* Now the molecule `Oc1n[nH]c2nnc(-c3c(-c4ccccc4)nn4ccccc34)cc12`
*A* yes

*Q* Could you do the same for `COc1ccc(OC)c2c(=S)c3ccccc3[nH]c12` , please?
*A* no

*Q* Also `CC(C)n1cnc2/c(=N/c3cccc(Cl)c3)nc(NCCO)[nH]c21` ?
*A* yes
